B1: ZNF649 (parent)
chain: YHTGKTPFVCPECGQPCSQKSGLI

Variants of: B1
Assay: protein stability index of a GFP-peptide fusion (GPS, HEK-293T) (PSI 1-6); higher = more stable;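 also: lentivirally expressed fusions sorted by FACS into six bins by GFP to DsRed ratio, PSI derived from sequencing read proportions per bin multiplied by bin number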
Conditions: c terminus: a fixed tail appended
Outcome: rule met for protein stability index of at least 2; rule not met for anything lower.

[[record]]
variant = "Q19K"
class_assignment = "rule not met"

[[record]]
variant = "T6E"
class_assignment = "rule met"

[[record]]
variant = "G4A"
class_assignment = "rule not met"

[[record]]
variant = "S21E"
class_assignment = "rule not met"

[[record]]
variant = "E12R"
class_assignment = "rule met"

[[record]]
variant = "L23G"
class_assignment = "rule met"

[[record]]
variant = "Q15S"
class_assignment = "rule met"

[[record]]
variant = "F8Q"
class_assignment = "rule met"

[[record]]
variant = "K20C"
class_assignment = "rule met"

[[record]]
variant = "G22I"
class_assignment = "rule met"

[[record]]
variant = "G4Q"
class_assignment = "rule not met"

[[record]]
variant = "C17V"
class_assignment = "rule met"

